B1: DULLARD (parent)
chain: LVVFTASMEIYGSAVADKLDNSRS

Variants of: B1
experimental.protocol: protein stability index of a GFP-peptide fusion (GPS, HEK-293T) (PSI 1-6); higher = more stable;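 also: lentivirally expressed fusions sorted by FACS into six bins by GFP to DsRed ratio, PSI derived from sequencing read proportions per bin multiplied by bin number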
applied.conditions: c terminus: a fixed tail appended
recorded.metric: protein stability index
Give your answer as a number; write no unit.

Please review the following examples before continuing.
sequence	protein stability index
LVVFTASMEKYGSAVADKLDNSRS	2.05
LVVFTASLEIYGSAVADKLDNSRS	2.01
LLVFTASMEIYGSAVADKLDNSRS	1.99

Attention now turns to another entry.
Query LVVFTASMEIYGSAVAVKLDNSRS yields protein stability index of 1.97
